Taken from ChEMBL document CHEMBL4321837.

- system.under.test: Vascular endothelial growth factor receptor 3 (Homo sapiens, UniProt P35916)
- assay.details: Inhibition of recombinant human FLT4 (800 to 1297 residues) using poly(Glu:Tyr) as substrate incubated for 30 mins in presence of [gamma33P]-ATP by scintillation counting based radiometry assay
measurement.name: pIC50
Numbers only, as −log10 of the molar value.

Given Cc1cnc(Nc2ccc(N3CCC(N(C)CCO)CC3)c(F)c2)nc1-c1cnn(C(C)C)c1 , state its recorded pIC50.
8.10

* * *

- assay.details: AUC (0 to t) in Sprague-Dawley rat at 5 mg/kg, po measured up to 24 hrs by LC/MS/MS analysis
- Format: ADME, organism-based
- Set-up: dose 5 mg/kg, time < 24 hr, route oral
- protocol.conditions: Sprague-Dawley, in vivo
measurement.name: AUC(0-t) at 24 h (ng·h/mL)
Give bare numbers, in ng·h/mL.

INSERT INTO results (smiles_notation, test_result) VALUES
  ('Cc1cnc(Nc2ccc(N3CCC(N(C)CCCO)CC3)c(F)c2)nc1-c1cnn(C(C)C)c1', 1510);

Now consider a different compound.
For the compound CCCCN(C)C1CCN(c2ccc(Nc3ncc(C)c(-c4cnn(C(C)C)c4)n3)cc2F)CC1 , what AUC(0-t) at 24 h is on record?
305

* * *

- Tested on: MOLM-13
- assay.details: Antiproliferative activity against FLT3-ITD-positive human MOLM13 cells assessed as reduction in cell growth after 72 hrs by MTT assay
- Format: functional, cell-based
- protocol.conditions: MOLM-13, 72 h
measurement.name: IC50 (nM)
Answers are plain numbers, in nM.

Could you tell me IC50 for each of these compounds? They are listed below.
1. CCCn1cc(-c2nc(Nc3ccc(N4CCN(CC)CC4)c(F)c3)ncc2F)cn1
2. Cc1cnc(Nc2ccc(N3CCC(CO)CC3)c(F)c2)nc1-c1cnn(C(C)C)c1
3. CCCN(C)C1CCN(c2ccc(Nc3ncc(C)c(-c4cnn(C(C)C)c4)n3)cc2F)CC1
4. Cc1cnc(Nc2ccc(N3CCC(N(C)CCN4CCN(C)CC4)CC3)c(F)c2)nc1-c1cnn(C(C)C)c1
5. Cc1cnc(Nc2ccc(N3CCC(N(C)CC4CCCO4)CC3)c(F)c2)nc1-c1cnn(C(C)C)c1 (centres undefined)
6. CCCCN(C)C1CCN(c2ccc(Nc3ncc(C)c(-c4cnn(C(C)C)c4)n3)cc2F)CC1
7. CCCN(CCN1CCOCC1)C1CCN(c2ccc(Nc3ncc(C)c(-c4cnn(C(C)C)c4)n3)cc2F)CC1

410
840
47
50
70
24
210

Below are some compounds; for each one, tell me its IC50.
1. Cc1cnc(Nc2ccc(N3CCC(N(C)CC4CC4)CC3)c(F)c2)nc1-c1cnn(C(C)C)c1
2. CCCn1cc(-c2nc(Nc3ccc(N4CCN(C)CC4)c(F)c3)ncc2F)cn1
3. CCCCN1CCC(n2cc(-c3nc(Nc4ccc(N5CCN(C)CC5)c(F)c4)ncc3F)cn2)CC1
4. Cc1cnc(Nc2ccc(N3CCC(N(C)CCO)CC3)c(F)c2)nc1-c1cnn(C(C)C)c1
5. CCN1CCN(c2ccc(Nc3ncc(F)c(-c4cnn(C5CCCC5)c4)n3)cc2F)CC1
6. Cc1cnc(Nc2ccc(N3CCN(C)CC3)c(F)c2)nc1-c1cnn(C(C)C)c1

1. 31
2. 490
3. 180
4. 72
5. 410
6. 120

* * *

- system.under.test: Tyrosine-protein kinase JAK1 (Homo sapiens, UniProt P23458)
- assay.details: Inhibition of JAK1 in human PBMC cells assessed as reduction in IL-6-induced STAT3 phosphorylation by flow cytometry
- Format: cell-based
measurement.name: IC50 (nM)
One number for each entry, in nM.

Item Cc1cnc(Nc2ccc(N3CCC(N(C)CCO)CC3)c(F)c2)nc1-c1cnn(C(C)C)c1 has what recorded IC50?
94.2

* * *

- system.under.test: Cytochrome P450 3A4 (Homo sapiens, UniProt P08684)
- Sequence (P08684 whole entry): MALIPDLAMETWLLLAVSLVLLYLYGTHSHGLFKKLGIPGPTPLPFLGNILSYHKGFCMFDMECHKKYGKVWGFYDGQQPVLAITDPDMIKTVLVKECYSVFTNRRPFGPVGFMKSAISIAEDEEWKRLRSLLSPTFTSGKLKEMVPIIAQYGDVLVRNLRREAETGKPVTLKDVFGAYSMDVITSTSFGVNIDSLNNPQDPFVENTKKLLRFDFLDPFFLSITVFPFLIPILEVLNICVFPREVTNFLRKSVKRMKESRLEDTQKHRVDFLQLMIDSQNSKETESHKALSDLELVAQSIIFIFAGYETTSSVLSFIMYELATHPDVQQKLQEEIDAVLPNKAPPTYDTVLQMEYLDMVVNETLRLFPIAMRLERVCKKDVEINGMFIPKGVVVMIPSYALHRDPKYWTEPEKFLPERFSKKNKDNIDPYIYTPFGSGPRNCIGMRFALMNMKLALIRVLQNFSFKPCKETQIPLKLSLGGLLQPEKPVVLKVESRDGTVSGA
measurement.name: IC50

May I ask what IC50 has been recorded for Cc1cnc(Nc2ccc(N3CCC(N(C)CCO)CC3)c(F)c2)nc1-c1cnn(C(C)C)c1 ?
> 100 µM

* * *

- system.under.test: Cytochrome P450 1A2 (Homo sapiens, UniProt P05177)
- Sequence (P05177 whole entry): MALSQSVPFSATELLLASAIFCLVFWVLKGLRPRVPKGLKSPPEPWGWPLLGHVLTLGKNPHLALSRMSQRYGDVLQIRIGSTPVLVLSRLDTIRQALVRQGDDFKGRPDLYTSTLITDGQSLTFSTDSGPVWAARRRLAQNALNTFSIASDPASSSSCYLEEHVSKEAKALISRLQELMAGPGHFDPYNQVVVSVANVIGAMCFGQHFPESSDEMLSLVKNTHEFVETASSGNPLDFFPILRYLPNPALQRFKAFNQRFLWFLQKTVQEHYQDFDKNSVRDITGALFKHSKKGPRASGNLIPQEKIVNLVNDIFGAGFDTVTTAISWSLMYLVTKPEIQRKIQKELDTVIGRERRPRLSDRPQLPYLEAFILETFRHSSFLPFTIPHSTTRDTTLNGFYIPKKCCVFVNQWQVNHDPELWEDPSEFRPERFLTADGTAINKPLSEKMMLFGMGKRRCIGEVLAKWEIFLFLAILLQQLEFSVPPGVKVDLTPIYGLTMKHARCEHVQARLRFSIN
measurement.name: IC50 (µM)
One number for each entry, in µM.

Data request, read-out IC50, for Cc1cnc(Nc2ccc(N3CCC(N(C)CCO)CC3)c(F)c2)nc1-c1cnn(C(C)C)c1
64.4

* * *

- assay.details: Half life in monkey liver microsomes
- Format: ADME, Macaca mulatta, Microsome
- protocol.conditions: rhesus monkey
measurement.name: half-life
Answer with the figure and its unit, nothing else.

Need half-life, item Cc1cnc(Nc2ccc(N3CCC(N(C)CCO)CC3)c(F)c2)nc1-c1cnn(C(C)C)c1
1390 min

* * *

- assay.details: Half life in human liver microsomes
- Format: ADME, Microsome
measurement.name: half-life (h)
Answers are plain numbers, in h.

Could you tell me which half-life is on file for Cc1cnc(Nc2ccc(N3CCC(N(C)CCO)CC3)c(F)c2)nc1-c1cnn(C(C)C)c1 ?
4.81

* * *

- system.under.test: JAK3/JAK1 (Homo sapiens, UniProt P23458+P52333)
- Sequence (P52333 whole entry): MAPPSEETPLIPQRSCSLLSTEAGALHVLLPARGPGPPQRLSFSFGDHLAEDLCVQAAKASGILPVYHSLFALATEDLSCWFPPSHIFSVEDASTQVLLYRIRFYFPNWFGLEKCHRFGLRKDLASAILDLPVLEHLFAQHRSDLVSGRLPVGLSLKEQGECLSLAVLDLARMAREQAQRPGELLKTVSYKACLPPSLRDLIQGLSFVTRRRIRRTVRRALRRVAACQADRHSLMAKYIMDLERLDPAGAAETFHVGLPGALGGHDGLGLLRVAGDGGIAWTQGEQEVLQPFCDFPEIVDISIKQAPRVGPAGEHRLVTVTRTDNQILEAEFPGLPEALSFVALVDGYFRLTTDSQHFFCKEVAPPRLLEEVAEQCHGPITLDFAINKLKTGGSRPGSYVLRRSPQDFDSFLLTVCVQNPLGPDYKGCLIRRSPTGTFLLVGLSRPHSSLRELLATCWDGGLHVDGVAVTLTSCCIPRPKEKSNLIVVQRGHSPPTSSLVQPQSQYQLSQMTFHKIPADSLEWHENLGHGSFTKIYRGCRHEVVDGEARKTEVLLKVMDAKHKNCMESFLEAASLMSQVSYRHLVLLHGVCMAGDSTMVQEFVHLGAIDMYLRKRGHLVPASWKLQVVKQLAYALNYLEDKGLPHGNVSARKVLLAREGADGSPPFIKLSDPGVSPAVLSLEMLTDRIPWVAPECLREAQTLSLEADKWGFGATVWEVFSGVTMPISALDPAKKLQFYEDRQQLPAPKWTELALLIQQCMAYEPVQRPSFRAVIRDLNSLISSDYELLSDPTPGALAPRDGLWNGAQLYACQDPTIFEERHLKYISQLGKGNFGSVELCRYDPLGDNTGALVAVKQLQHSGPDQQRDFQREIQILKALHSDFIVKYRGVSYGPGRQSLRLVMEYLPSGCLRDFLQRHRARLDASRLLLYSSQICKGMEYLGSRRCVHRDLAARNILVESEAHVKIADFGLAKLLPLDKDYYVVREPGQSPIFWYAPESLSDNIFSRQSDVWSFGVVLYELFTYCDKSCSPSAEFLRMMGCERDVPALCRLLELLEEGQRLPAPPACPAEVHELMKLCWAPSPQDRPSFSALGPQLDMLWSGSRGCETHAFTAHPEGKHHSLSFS
- Sequence (P23458 whole entry): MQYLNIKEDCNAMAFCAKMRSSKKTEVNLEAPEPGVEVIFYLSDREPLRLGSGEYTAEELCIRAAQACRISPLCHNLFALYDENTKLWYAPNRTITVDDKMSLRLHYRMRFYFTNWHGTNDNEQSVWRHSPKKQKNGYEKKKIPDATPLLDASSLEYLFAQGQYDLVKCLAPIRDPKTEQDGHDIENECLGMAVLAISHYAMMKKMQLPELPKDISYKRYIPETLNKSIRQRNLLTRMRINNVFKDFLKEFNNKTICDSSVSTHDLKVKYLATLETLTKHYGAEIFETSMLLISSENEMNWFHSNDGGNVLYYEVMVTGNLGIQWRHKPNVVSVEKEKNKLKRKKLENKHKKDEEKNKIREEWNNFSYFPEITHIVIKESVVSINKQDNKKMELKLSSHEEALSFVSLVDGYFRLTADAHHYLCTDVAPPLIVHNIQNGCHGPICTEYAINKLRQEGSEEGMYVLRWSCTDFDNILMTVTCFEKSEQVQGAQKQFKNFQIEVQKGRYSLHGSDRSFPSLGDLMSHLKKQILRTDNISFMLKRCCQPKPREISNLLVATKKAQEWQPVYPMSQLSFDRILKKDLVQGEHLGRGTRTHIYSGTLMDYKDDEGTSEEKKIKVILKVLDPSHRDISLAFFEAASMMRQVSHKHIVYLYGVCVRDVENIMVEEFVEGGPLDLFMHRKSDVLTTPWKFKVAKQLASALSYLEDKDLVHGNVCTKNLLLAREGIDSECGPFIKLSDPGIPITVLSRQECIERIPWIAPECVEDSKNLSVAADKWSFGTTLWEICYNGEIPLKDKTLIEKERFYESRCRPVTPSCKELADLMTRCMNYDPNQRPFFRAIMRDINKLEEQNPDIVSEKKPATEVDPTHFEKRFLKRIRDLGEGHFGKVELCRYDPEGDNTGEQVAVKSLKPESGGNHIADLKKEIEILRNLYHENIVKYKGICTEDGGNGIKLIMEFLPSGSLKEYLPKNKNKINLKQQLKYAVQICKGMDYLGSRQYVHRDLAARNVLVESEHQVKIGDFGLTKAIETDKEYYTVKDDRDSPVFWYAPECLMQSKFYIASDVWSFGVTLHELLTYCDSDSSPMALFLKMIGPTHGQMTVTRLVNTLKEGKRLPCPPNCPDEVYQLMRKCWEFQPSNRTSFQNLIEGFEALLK
- assay.details: Inhibition of JAK1/JAK3 in human THP-1 cells assessed as reduction in IL-4-induced STAT6 phosphorylation by flow cytometry
- Format: cell-based
measurement.name: IC50 (nM)
Answers are plain numbers, in nM.

Would you kindly share the measured IC50 for Cc1cnc(Nc2ccc(N3CCC(N(C)CCO)CC3)c(F)c2)nc1-c1cnn(C(C)C)c1 ?
578

* * *

Assign Cmax to each entry below.
- assay.details: Cmax in Sprague-Dawley rat at 5 mg/kg, po measured up to 24 hrs by LC/MS/MS analysis
- Type: ADME, organism-based
- Set-up: dose 5 mg/kg, route oral
- protocol.conditions: Sprague-Dawley, in vivo, read-out: Cmax
For clarity, give the value followed by its unit.

INSERT INTO results (smiles_notation, measurement_name, test_result) VALUES
  ('Cc1cnc(Nc2ccc(N3CCC(N(C)CCCO)CC3)c(F)c2)nc1-c1cnn(C(C)C)c1', 'Cmax', '88.9 ng/mL');

Here is the next item to consider.
Can you share its Cmax? I mean this compound: CCCCN(C)C1CCN(c2ccc(Nc3ncc(C)c(-c4cnn(C(C)C)c4)n3)cc2F)CC1
56.5 ng/mL

* * *

- assay.details: Half life in rat liver microsomes
- Format: ADME, Microsome
measurement.name: half-life (h)
One number for each entry, in h.

Fill in the blank: the reported half-life of Cc1cnc(Nc2ccc(N3CCC(N(C)CCO)CC3)c(F)c2)nc1-c1cnn(C(C)C)c1 is ____.
12.8

* * *

Provide the reported Activity of each item.
- system.under.test: UniProt:P36888
- Sequence (P36888 whole entry): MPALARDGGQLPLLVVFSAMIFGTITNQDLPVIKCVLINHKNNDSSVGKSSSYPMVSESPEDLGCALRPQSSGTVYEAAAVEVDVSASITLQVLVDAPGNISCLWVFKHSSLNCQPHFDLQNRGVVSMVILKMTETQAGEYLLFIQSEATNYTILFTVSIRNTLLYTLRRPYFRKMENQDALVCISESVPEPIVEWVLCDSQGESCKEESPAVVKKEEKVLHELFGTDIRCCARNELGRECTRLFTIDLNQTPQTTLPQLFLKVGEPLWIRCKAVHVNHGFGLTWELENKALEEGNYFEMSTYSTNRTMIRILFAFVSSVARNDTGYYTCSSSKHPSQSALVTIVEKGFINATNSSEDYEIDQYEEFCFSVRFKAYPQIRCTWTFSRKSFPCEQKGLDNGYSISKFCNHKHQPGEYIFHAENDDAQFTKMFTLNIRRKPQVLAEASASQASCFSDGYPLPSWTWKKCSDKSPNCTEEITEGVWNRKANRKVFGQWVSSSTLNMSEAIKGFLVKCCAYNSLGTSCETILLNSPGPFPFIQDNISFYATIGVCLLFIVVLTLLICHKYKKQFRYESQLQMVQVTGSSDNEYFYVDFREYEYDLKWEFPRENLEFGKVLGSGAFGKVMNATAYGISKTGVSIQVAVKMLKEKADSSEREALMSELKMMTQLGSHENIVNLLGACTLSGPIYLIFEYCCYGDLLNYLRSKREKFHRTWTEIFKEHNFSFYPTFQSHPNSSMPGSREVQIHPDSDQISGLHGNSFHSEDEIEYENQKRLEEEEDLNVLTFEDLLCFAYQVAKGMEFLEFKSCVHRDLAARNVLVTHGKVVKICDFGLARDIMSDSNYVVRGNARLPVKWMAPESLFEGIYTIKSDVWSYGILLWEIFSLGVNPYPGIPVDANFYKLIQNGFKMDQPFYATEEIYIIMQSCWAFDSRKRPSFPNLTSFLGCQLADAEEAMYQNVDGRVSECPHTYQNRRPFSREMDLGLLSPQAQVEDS
- assay.details: Inhibition of human FLT3 (564 to end residues) assessed as residual activity at 100 nM using EAIYAAPFAKKK as substrate after 40 mins in presence of [gamma33P]-ATP by scintillation counting based radiometric assay relative to control
One number for each entry, in %.

INSERT INTO measurements (compound, system_under_test, measurement_name, test_result) VALUES
  ('Cc1cnc(Nc2ccc(N3CCC(N(C)CC4CC4)CC3)c(F)c2)nc1-c1cnn(C(C)C)c1', 'UniProt:P36888', 'Activity', 4),
  ('CCCCN1CCC(n2cc(-c3nc(Nc4ccc(N5CCN(C)CC5)c(F)c4)ncc3F)cn2)CC1', 'UniProt:P36888', 'Activity', 13),
  ('Cc1cnc(Nc2ccc(N3CCC(N(C)CC4CCCO4)CC3)c(F)c2)nc1-c1cnn(C(C)C)c1 (stereo not given)', 'UniProt:P36888', 'Activity', 6),
  ('CCN(CCN1CCOCC1)C1CCN(c2ccc(Nc3ncc(C)c(-c4cnn(C(C)C)c4)n3)cc2F)CC1', 'UniProt:P36888', 'Activity', 7),
  ('CC(C)n1cc(-c2nc(Nc3ccc(N4CCC(N5CCCCC5)CC4)c(F)c3)ncc2F)cn1', 'UniProt:P36888', 'Activity', 10);

Would you mind listing Activity for each of the following compounds?
1. Cc1cnc(Nc2ccc(N3CCN(C)CC3)c(F)c2)nc1-c1cnn(C(C)C)c1
2. CCN1CCN(c2ccc(Nc3ncc(F)c(-c4cnn(C5CCCC5)c4)n3)cc2F)CC1
3. CCN1CCN(c2ccc(Nc3ncc(F)c(-c4cnn(C(C)C)c4)n3)c(F)c2)CC1
4. CCCn1cc(-c2nc(Nc3ccc(N4CCN(C)CC4)c(F)c3)ncc2F)cn1
5. CC(C)n1cc(-c2nc(Nc3ccc(N4CCC(N(C)C)CC4)c(F)c3)ncc2F)cn1
6. CCCN(C)C1CCN(c2ccc(Nc3ncc(C)c(-c4cnn(C(C)C)c4)n3)cc2F)CC1
7. CC(C)n1cc(-c2nc(Nc3ccc(N4CCN(C5CCN(C)CC5)CC4)c(F)c3)ncc2F)cn1

1: 6; 2: 12; 3: 16; 4: 14; 5: 9; 6: 6; 7: 10

Batch request: Activity for each of the following compounds.
1. Cc1cnc(Nc2ccc(N3CCC(N(C)CCN4CCOCC4)CC3)c(F)c2)nc1-c1cnn(C(C)C)c1
2. CCN1CCN(c2ccc(Nc3ncc(F)c(-c4cnn(C(C)C)c4)n3)cc2F)CC1
3. Cc1cnc(Nc2ccc(N3CCC(N(C)CCCO)CC3)c(F)c2)nc1-c1cnn(C(C)C)c1
4. CCCCN(C)C1CCN(c2ccc(Nc3ncc(C)c(-c4cnn(C(C)C)c4)n3)cc2F)CC1
5. CCCn1cc(-c2nc(Nc3ccc(N4CCN(CC)CC4)c(F)c3)ncc2F)cn1
6. CCOCCN(C)C1CCN(c2ccc(Nc3ncc(C)c(-c4cnn(C(C)C)c4)n3)cc2F)CC1

5
17
7
7
15
5

I'm hoping you can list Activity for every compound here, please.
1. Cc1cnc(Nc2ccc(N3CCC(N(C)C)CC3)c(F)c2)nc1-c1cnn(C(C)C)c1
2. CCCN(CCN1CCOCC1)C1CCN(c2ccc(Nc3ncc(C)c(-c4cnn(C(C)C)c4)n3)cc2F)CC1
3. Cc1cnc(Nc2ccc(N3CCC(N(C)CCN4CCCCC4)CC3)c(F)c2)nc1-c1cnn(C(C)C)c1
4. Cc1cnc(Nc2ccc(N3CCC(N(C)CCO)CC3)c(F)c2)nc1-c1cnn(C(C)C)c1
5. CCCCn1cc(-c2nc(Nc3ccc(N4CCN(C)CC4)c(F)c3)ncc2F)cn1
6. Cc1cnc(Nc2ccc(N3CCC(N(C)CCN4CCN(C)CC4)CC3)c(F)c2)nc1-c1cnn(C(C)C)c1
7. CCCCCCN(C)C1CCN(c2ccc(Nc3ncc(C)c(-c4cnn(C(C)C)c4)n3)cc2F)CC1

[8, 8, 6, 4, 11, 5, 6]
